- procedure_summary: In vivo pharmacokinetics in mouse
- assay_setup: plasma; Mouse, single dose, tested IV, oral routes
readout_kind: Cmax (ng/mL)
Quick note: give the figure in ng/mL, leave out the unit.

Measured Cmax, [N-]=[N+]=Nc1ccc(NCCCCCCN2C[C@H](O)[C@@H](O)[C@H](O)[C@H]2CO)c([N+](=O)[O-])c1 : 14400

====

- procedure_summary: Aqueous solubility in gastric and intestinal fluids (Cerep)
- Type: physicochemical
- assay_setup: intestinal fluid, fassgf or other biorelevant; read-out: Aqueous solubility in intestinal fluid
readout_kind: solubility

Measured solubility, O=[N+]([O-])c1cc(-n2nccn2)ccc1NCCCCCCN1C[C@H](O)[C@@H](O)[C@H](O)[C@H]1CO : > 200 µM
